Assay: Aqueous solubility, pH dependent
Assay type: physicochemical
Conditions: pH 2
This section presents compounds with their documented Aqueous Solubility values.

COMPOUND	Aqueous Solubility
CCCCCc1cc(OC(=O)[C@@H](N)C(C)C)c2c(c1)OC(C)(C)C1CCC(C)=CC21.O=C(O)CC(=O)O (some centres unmarked) [THC-Valinate malonate]	118.42 ± 5.07 µg/mL
CCCCCc1cc(OC(=O)C(N)CC(C)C)c2c(c1)OC(C)(C)C1CCC(C)=CC21 (centres unmarked) [THC-Leucinate (8), Δ^9-THC-leucinate]	23.71 ± 0.40 µg/mL
CCCCCc1cc(OC(=O)C(N)C(C)C)c2c(c1)OC(C)(C)C1CCC(C)=CC21 (centres unmarked) [THC-Valinate (6), Δ^9-THC-valinate]	53.66 ± 10.30 µg/mL
CCCCCc1cc(OC(=O)C(N)Cc2c[nH]c3ccccc23)c2c(c1)OC(C)(C)C1CCC(C)=CC21.O=C(O)CC(=O)O (centres unmarked) [THC-Tryptophanate Malonate]	4.65 ± 0.31 µg/mL
CCCCCc1cc(OC(=O)[C@@H](N)CCC(N)=O)c2c(c1)OC(C)(C)[C@@H]1CCC(C)=C[C@@H]21 [THC-Glutaminate (9), Δ^9-THC-glutaminate]	162.82 ± 14.39 µg/mL

====

Assay: Thermal stability, 120° C. for 10 min
Format: physicochemical
Conditions: 120° C. for 10 min

COMPOUND	CBN content of the sample after heating [µg]
CCCCCc1cc(OC(=O)C(N)C(C)C)c2c(c1)OC(C)(C)C1CCC(C)=CC21 (centres unmarked) [THC-Valinate (6), Δ^9-THC-valinate]	8.79
CCCCCc1cc(O)c2c(c1)OC(C)(C)C1CCC(C)=CC21 (centres unmarked) [THC, Δ^9-Tetrahydrocannabinol, reference compound]	53.85
CCCCCc1cc(OC(=O)C(N)CC(C)C)c2c(c1)OC(C)(C)C1CCC(C)=CC21 (centres unmarked) [THC-Leucinate (8), Δ^9-THC-leucinate]	20.27
CCCCCc1cc(OC(=O)[C@@H](N)Cc2c[nH]c3ccccc23)c2c(c1)OC(C)(C)[C@@H]1CCC(C)=C[C@@H]21 [THC-Tryptophanate (10), Δ^9-THC-tryptophinate]	16.63
CCCCCc1cc(OC(=O)CNC)c2c(c1)OC(C)(C)[C@@H]1CCC(C)=C[C@@H]21 [THC-Sarcosinate (7), Δ^9-THC-sarcosinate]	33.83
CCCCCc1cc(OC(=O)C(NC(=O)CCC(=O)O)C(C)C)c2c(c1)OC(C)(C)C1CCC(C)=CC21 (centres unmarked) [THC-Valinate-HS (15), THC-valinate-hemisuccinate]	0
CCCCCc1cc(OC(=O)CCCc2ccc(NC(=O)CCC(=O)O)cc2)c2c(c1)OC(C)(C)[C@@H]1CCC(C)=C[C@@H]21 [THC-APB-HS (14)]	38.36
CCCCCc1cc(OC(=O)[C@@H](N)Cc2ccc(O)cc2)c2c(c1)OC(C)(C)[C@@H]1CCC(C)=C[C@@H]21 [THC-Tyrosinate (11), Δ^9-THC-tyrosinate]	24.42

====

Experiment: In vivo ocular bioavailability of THC after topical formulations
Details: male, New Zealand albino, rabbit, sclera, topical, 50 μL of 0.37% w/v THC
OBSERVATION TYPE: concentration at 1 h

In [3]: df
Out[3]:
                                   compound    result
0  CCCCCc1cc(O)c2c(c1)OC(C)(C)C1CCC(C)=CC21 (stereo not shown) [THC, Δ^9-Tetrahydrocannabinol, reference compound]  684 ng/g

====

Assay: Thermal stability, 120° C. for 10 min
Format: physicochemical
This section presents compounds with their documented Drug loading (%) values.
OBSERVATION TYPE: Drug loading (%)

COMPOUND	RESULT
CCCCCc1cc(OC(=O)C(NC(=O)CCC(=O)O)C(C)C)c2c(c1)OC(C)(C)C1CCC(C)=CC21 (stereo not drawn) [THC-Valinate-HS (15), THC-valinate-hemisuccinate]	112.21 ± 4.99%
CCCCCc1cc(OC(=O)CNC)c2c(c1)OC(C)(C)[C@@H]1CCC(C)=C[C@@H]21 [THC-Sarcosinate (7), Δ^9-THC-sarcosinate]	79.82 ± 0.85%
CCCCCc1cc(OC(=O)C(N)C(C)C)c2c(c1)OC(C)(C)C1CCC(C)=CC21 (stereo not drawn) [THC-Valinate (6), Δ^9-THC-valinate]	104.67 ± 2.22%
CCCCCc1cc(O)c2c(c1)OC(C)(C)C1CCC(C)=CC21 (stereo not drawn) [THC, Δ^9-Tetrahydrocannabinol, reference compound]	85.38 ± 7.25%
CCCCCc1cc(OC(=O)C(N)CC(C)C)c2c(c1)OC(C)(C)C1CCC(C)=CC21 (stereo not drawn) [THC-Leucinate (8), Δ^9-THC-leucinate]	103.65 ± 4.12%
CCCCCc1cc(OC(=O)CCCc2ccc(NC(=O)CCC(=O)O)cc2)c2c(c1)OC(C)(C)[C@@H]1CCC(C)=C[C@@H]21	96.66 ± 2.18%

====

Assay: Aqueous solubility, pH dependent
Type: physicochemical
Details: water
OBSERVATION TYPE: solubility (µM)

In [3]: df
Out[3]:
                                   compound  unit_annotation  recorded_number
0  CCCCCc1cc(O)c2c(c1)OC(C)(C)C1CCC(C)=CC21 (stereo not shown) [THC, Δ^9-Tetrahydrocannabinol, reference compound]               µM             2.23

====

This section presents compounds with their documented T1/2 values.
Assay: Porcine buccal tissue homogenate stability
Format: in vitro ADME
Settings: protein concentration 2 mg/ml
OBSERVATION TYPE: T1/2

COMPOUND	OBSERVATION TYPE	RESULT
CCCCCc1cc(OC(=O)[C@@H](N)CCC(N)=O)c2c(c1)OC(C)(C)[C@@H]1CCC(C)=C[C@@H]21 [THC-Glutaminate (9), Δ^9-THC-glutaminate]	T1/2	17.21 ± 1.40 min
CCCCCc1cc(OC(=O)C(N)CC(C)C)c2c(c1)OC(C)(C)C1CCC(C)=CC21 (stereo not drawn) [THC-Leucinate (8), Δ^9-THC-leucinate]	T1/2	30.21 ± 1.95 min
CCCCCc1cc(OC(=O)[C@@H](N)Cc2c[nH]c3ccccc23)c2c(c1)OC(C)(C)[C@@H]1CCC(C)=C[C@@H]21 [THC-Tryptophanate (10), Δ^9-THC-tryptophinate]	T1/2	77.27 ± 10.73 min
CCCCCc1cc(OC(=O)C(NC(=O)CCC(=O)O)C(C)C)c2c(c1)OC(C)(C)C1CCC(C)=CC21 (stereo not drawn) [THC-Valinate-HS (15), THC-valinate-hemisuccinate]	T1/2	23.43 ± 1.49 min
CCCCCc1cc(OC(=O)[C@@H](N)Cc2ccc(O)cc2)c2c(c1)OC(C)(C)[C@@H]1CCC(C)=C[C@@H]21 [THC-Tyrosinate (11), Δ^9-THC-tyrosinate]	T1/2	32.21 ± 0.81 min
CCCCCc1cc(OC(=O)C(N)C(C)C)c2c(c1)OC(C)(C)C1CCC(C)=CC21 (stereo not drawn) [THC-Valinate (6), Δ^9-THC-valinate]	T1/2	43.30 ± 0.51 min

====

Assay: Porcine buccal tissue homogenate stability
Format: in vitro ADME
Conditions: protein concentration 2 mg/ml

MOLECULE	K
CCCCCc1cc(OC(=O)C(NC(=O)CCC(=O)O)C(C)C)c2c(c1)OC(C)(C)C1CCC(C)=CC21 (stereo not shown) [THC-Valinate-HS (15), THC-valinate-hemisuccinate]	2.96 ± 0.19 ×10^−3 min^−1
CCCCCc1cc(OC(=O)[C@@H](N)CCC(N)=O)c2c(c1)OC(C)(C)[C@@H]1CCC(C)=C[C@@H]21 [THC-Glutaminate (9), Δ^9-THC-glutaminate]	40.41 ± 3.30 ×10^−3 min^−1
CCCCCc1cc(OC(=O)C(N)C(C)C)c2c(c1)OC(C)(C)C1CCC(C)=CC21 (stereo not shown) [THC-Valinate (6), Δ^9-THC-valinate]	16 ± 0.19 ×10^−3 min^−1
CCCCCc1cc(OC(=O)CNC)c2c(c1)OC(C)(C)[C@@H]1CCC(C)=C[C@@H]21 [THC-Sarcosinate (7), Δ^9-THC-sarcosinate]	37.36 ± 3.87 ×10^−3 min^−1
CCCCCc1cc(OC(=O)C(N)CC(C)C)c2c(c1)OC(C)(C)C1CCC(C)=CC21 (stereo not shown) [THC-Leucinate (8), Δ^9-THC-leucinate]	22.98 ± 1.49 ×10^−3 min^−1
CCCCCc1cc(OC(=O)[C@@H](N)Cc2c[nH]c3ccccc23)c2c(c1)OC(C)(C)[C@@H]1CCC(C)=C[C@@H]21 [THC-Tryptophanate (10), Δ^9-THC-tryptophinate]	9.06 ± 1.26 ×10^−3 min^−1
CCCCCc1cc(OC(=O)[C@@H](N)Cc2ccc(O)cc2)c2c(c1)OC(C)(C)[C@@H]1CCC(C)=C[C@@H]21 [THC-Tyrosinate (11), Δ^9-THC-tyrosinate]	21.52 ± 0.55 ×10^−3 min^−1
